target: T1, trypsin-activated PDE6AB from mouse retina extract (mouse (endogenous in retina), UniProt P27664 1-859; P23440 1-856); experiment: inhibition of enzyme activity (cGMP hydrolysis); trypsin-treated mouse retina extract inhibited by purified recombinant Pγr; 20 mM Tris-HCl pH 7.5, 120 mM NaCl, 2 mM MgSO4, 1 mM BME, 10 μM [3H]cGMP, 25 °C; settings: one partner purified
T1 construct: mouse rod PDE6 catalytic subunit PDE6A, after trypsin treatment of the retina lysate; mouse rod PDE6 catalytic subunit PDE6B, after trypsin treatment of the retina lysate; Trypsin treatment degrades the endogenous Pγ; The retina extract also holds a few percent of cone PDE6C activity; also called mouse rod PDE6; source: endogenous, C57BL/J mouse retina lysate, trypsin-treated; copies: 1 + 1
T1 sequence (P27664 whole entry, chain 1 of 2): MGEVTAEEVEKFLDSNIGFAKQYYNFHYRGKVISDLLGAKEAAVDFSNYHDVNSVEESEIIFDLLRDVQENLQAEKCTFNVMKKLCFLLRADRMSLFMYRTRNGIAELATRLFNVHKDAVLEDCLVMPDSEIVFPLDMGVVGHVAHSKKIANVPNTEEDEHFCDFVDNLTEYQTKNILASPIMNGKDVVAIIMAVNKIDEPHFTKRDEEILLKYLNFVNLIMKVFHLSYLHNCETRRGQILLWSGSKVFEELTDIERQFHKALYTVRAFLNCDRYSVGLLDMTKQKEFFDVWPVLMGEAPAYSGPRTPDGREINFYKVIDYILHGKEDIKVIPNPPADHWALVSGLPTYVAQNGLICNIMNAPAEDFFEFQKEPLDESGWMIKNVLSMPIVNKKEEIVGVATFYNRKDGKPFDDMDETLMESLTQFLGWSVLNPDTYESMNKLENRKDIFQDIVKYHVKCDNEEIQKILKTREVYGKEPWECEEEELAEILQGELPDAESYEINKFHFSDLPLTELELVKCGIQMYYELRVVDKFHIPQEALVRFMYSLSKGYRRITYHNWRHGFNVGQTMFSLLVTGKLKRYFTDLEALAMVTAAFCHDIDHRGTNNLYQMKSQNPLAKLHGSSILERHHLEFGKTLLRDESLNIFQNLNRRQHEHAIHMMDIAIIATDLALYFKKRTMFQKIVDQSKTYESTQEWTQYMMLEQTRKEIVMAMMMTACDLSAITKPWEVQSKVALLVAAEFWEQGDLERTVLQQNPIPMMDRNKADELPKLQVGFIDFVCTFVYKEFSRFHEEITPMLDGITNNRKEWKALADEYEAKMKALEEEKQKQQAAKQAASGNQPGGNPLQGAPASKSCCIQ
T1 sequence (P23440 whole entry, chain 2 of 2): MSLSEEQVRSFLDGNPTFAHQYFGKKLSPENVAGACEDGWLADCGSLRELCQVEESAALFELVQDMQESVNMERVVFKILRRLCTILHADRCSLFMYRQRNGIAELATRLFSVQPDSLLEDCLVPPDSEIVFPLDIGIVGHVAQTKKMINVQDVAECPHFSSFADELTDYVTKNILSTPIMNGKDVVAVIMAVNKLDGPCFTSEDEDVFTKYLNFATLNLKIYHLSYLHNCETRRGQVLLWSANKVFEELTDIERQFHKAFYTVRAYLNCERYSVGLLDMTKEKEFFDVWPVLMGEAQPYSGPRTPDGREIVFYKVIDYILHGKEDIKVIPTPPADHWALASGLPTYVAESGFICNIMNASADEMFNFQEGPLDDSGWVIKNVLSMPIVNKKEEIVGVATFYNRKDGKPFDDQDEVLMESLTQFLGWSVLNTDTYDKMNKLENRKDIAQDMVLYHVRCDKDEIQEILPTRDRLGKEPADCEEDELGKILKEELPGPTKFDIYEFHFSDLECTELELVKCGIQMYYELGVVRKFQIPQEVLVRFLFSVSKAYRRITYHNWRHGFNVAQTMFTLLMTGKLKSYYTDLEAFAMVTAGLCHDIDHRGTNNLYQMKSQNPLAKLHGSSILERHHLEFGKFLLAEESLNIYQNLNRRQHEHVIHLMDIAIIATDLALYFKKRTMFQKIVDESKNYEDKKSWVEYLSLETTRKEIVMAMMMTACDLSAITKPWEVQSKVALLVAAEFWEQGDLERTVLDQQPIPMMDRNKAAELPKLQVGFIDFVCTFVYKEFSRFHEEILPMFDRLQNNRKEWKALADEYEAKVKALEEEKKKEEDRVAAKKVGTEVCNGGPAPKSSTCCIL
quantity.name: pKi
Worth noting: pKi values are minus log10 of concentrations stated in mol/L.

Quick one: pKi of His6-tagged bovine Pγr (rod PDE6 inhibitory γ-subunit), bacterially expressed (natural protein, UniProt P04972 1-87, looked up, also called rod Pγ; purified recombinant Pγr) MNLEPPKAEIRSATRVMGGPVTPRKGPPKFKQRQTRQFKSKPPKKGVQGFGDDIPGMEGLGTDITVICPWEAFNHLELHELAQYGII ?
10.05
